Taken from patent US20230057987A1.

target: T1, CT45 (CT45A1, A2, A3, A5 to A10); CT45-IP peptide on HLA-A*02:01 (human); experiment: luciferase release, 24 h, 1:1; CD8+ T cells with TCR mRNA, T2 cells with titrated peptide; full-length, on cells
T1 peptide: KIFEMLEGV
Parameter: EC50 of peptide. Scope: all listed entries.
Answer with the value and then the unit.

[[record]]
binder = "TCR-13 (TCR, V domains shown) Valpha: QKITQTQPGMFVQEKEAVTLDCTYDTSDQSYGLFWYKQPSSGEMIFLIYQGSYDEQNATEGRYSLNFQKARKSANLVISASQLGDSAMYFCAMSDPIMDTGRRALTFGSGTRLQVQP Vbeta: GITQSPKYLFRKEGQNVTLSCEQNLNHDAMYWYRQDPGQGLRLIYYSQIVNDFQKGDIAEGYSVSREKKESFPLTVTSAQKNPTAFYLCASKSRGPNLADTQYFGPGTRLTVL"
measure = "EC50 of peptide"
reading = "11.4 nM"

[[record]]
binder = "TCR-2 (TCR, V domains shown) Valpha: QKITQTQPGMFVQEKEAVTLDCTYDTSDQSYGLFWYKQPSSGEMIFLIYQGSYDEQNATEGRYSLNFQKARKSANLVISASQLGDSAMYFCAMREGSDAGGTSYGKLTFGQGTILTVHP Vbeta: GVIQSPRHLIKEKRETATLKCYPIPRHDTVYWYQQGPGQDPQFLISFYEKMQSDKGSIPDRFSAQQFSDYHSELNMSSLELGDSALYFCASSPSTGRLNTEAFFGQGTRLTVV"
measure = "EC50 of peptide"
reading = "4.69 nM"

[[record]]
binder = "TCR-9 (TCR, V domains shown) Valpha: EDVEQSLFLSVREGDSSVINCTYTDSSSTYLYWYKQEPGAGLQLLTYIFSNMDMKQDQRLTVLLNKKDKHLSLRIADTQTGDSAIYFCAEKETAGNKLTFGGGTRVLVKP Vbeta: EPEVTQTPSHQVTQMGQEVILRCVPISNHLYFYWYRQILGQKVEFLVSFYNNEISEKSEIFDDQFSVERPDGSNFTLKIRSTKLEDSAMYFCASTVQSPRTNEQFFGPGTRLTVL"
measure = "EC50 of peptide"
reading = "0.15 nM"


Now turn to the next binder.
Would you kindly share the measured EC50 of peptide for TCR-15 (TCR, V domains shown) Valpha: KQEVTQIPAALSVPEGENLVLNCSFTDSAIYNLQWFRQDPGKGLTSLLLIQSSQREQTSGRLNASLDKSSGRSTLYIAASQPGDSATYLCAVLLTGKLIFGQGTTLQVKP Vbeta: GVTQTPRYLIKTRGQQVTLSCSPISGHRSVSWYQQTPGQGLQFLFEYFSETQRNKGNFPGRFSGRQFSNSRSEMNVSTLELGDSALYLCASSGGPGPSGEQYFGPGTRLTVT ?
18.6 nM
